Please go through the items and note down their TGI.
Test system: SF-295 CNS
assay method text: NCI tumour cell line growth inhibition, 48 h

{"compound": "COc1cccc(C(=O)NC(c2ccc(C)cc2)c2cc(Cl)c3cccnc3c2O)c1 (stereo not given)", "study target": "SF-295 CNS", "quantity name": "TGI", "recorded result": "15.3 µM"}
{"compound": "N#CC(Cc1ccccc1)N(CCC1=CCCCC1)C(c1ccccc1)c1ccccc1 (stereo not given)", "study target": "SF-295 CNS", "quantity name": "TGI", "recorded result": "> 100 µM"}
{"compound": "O=C1CCCCC1CN1CCCCC1 (stereo not given)", "study target": "SF-295 CNS", "quantity name": "TGI", "recorded result": "> 100 µM"}
{"compound": "COc1ccc(CN2C(=O)/C(=C\\c3cc(OC)c(OC)c(OC)c3)c3ccccc32)cc1", "study target": "SF-295 CNS", "quantity name": "TGI", "recorded result": "35.8 µM"}
{"compound": "CC(C)(C)c1cc2ccc(C(N)=O)cc2c(=O)[nH]1", "study target": "SF-295 CNS", "quantity name": "TGI", "recorded result": "> 100 µM"}

Parameters: items (list). Returns: TGI for each item.
1. O=c1c(-c2ccccc2)c2oc(c1-c1ccccc1)CSCc1cccc(c1)CSC2
2. COc1ccc(C)cc1-c1cc(Sc2ccccc2)c(-c2cc(C)ccc2OC)o1
3. Cc1ccc(Oc2ccc(C)cc2N)cc1
4. C/C(=C\CBr)CCC(Br)C(C)(C)Br (stereo not given)
5. N#C/C(=C1/Sc2c(nc[nH]c2=O)N1c1ccccc1)c1nc2ccccc2[nH]1
6. CC(C)(C)c1cc2c(O)c3cccc4c(=O)c5cccc6c5-c(c34)c2c(c1)c6=O
7. Oc1ccccc1CNCc1nc2ccccc2[nH]1
8. COc1ccc2nc3cc(Cl)ccc3c(NCCNCC(C)O)c2c1 (stereo not given)

> 100 µM
> 100 µM
> 100 µM
> 100 µM
> 100 µM
> 100 µM
> 100 µM
6.71 µM

Parameters: items (list). Returns: TGI for each item.
1. COC(=O)[C@@H](O)[C@](O)(CCC(C)C)C(=O)O[C@@H]1C(OC)=C[C@]23CCCN2CCc2cc4c(cc2[C@H]13)OCO4
2. CN(C)c1cc(NN=C(c2ccc(O)cc2)c2ccc(O)cc2)c([N+](=O)[O-])cc1[N+](=O)[O-]

1: 5.68 µM; 2: 5.22 µM
